Where do the numbers come from? From the supplement of paper PMC11246515.

- assay-info: total protein half-life in vivo (active degradation + dilution); higher = more stable protein
- condition-details: E. coli NCM3722 delta-clpP; growth: N-lim chemostat; doubling time 6 h
readout: total protein half-life in vivo (h)
Form entry: value (h) — number only.

Quick one: total protein half-life in vivo of MKNSKAILQVPGTMKIISAEIPVPKEDEVLIKVEYVGICGSDVHGFESGPFIPPKDPNQEIGLGHECAGTVVAVGSRVRKFKPGDRVNIEPGVPCGHCRYCLEGKYNICPDVDFMATQPNYRGALTHYLCHPESFTYKLPDNMDTMEGALVEPAAVGMHAAMLADVKPGKKIIILGAGCIGLMTLQACKCLGATEIAVVDVLEKRLAMAEQLGATVVINGAKEDTIARCQQFTEDMGADIVFETAGSAVTVKQAPYLVMRGGKIMIVGTVPGDSAINFLKINREVTIQTVFRYANRYPVTIEAISSGRFDVKSMVTHIYDYRDVQQAFEESVNNKRDIIKGVIKISD ?
4.02

# query: total protein half-life in vivo of entry MSIRFARKADCAAIAEIYNHAVLYTAAIWNDQTVDADNRIAWFEARTLAGYPVLVSEENGVVTGYASFGDWRSFDGFRHTVEHSVYVHPDHQGKGLGRKLLSRLIDEARDCGKHVMVAGIESQNQASLHLHQSLGFVVTAQMPQVGTKFGRWLDLTFMQLQLDERTEPDAIG
4.6

Recorded total protein half-life in vivo of MANVEIYTKETCPYCHRAKALLSSKGVSFQELPIDGNAAKREEMIKRSGRTTVPQIFIDAQHIGGCDDLYALDARGGLDPLLK [P0AC62] , please.
5.58

What total protein half-life in vivo value was documented for this sequence, MSAGSPKFTVRRIAALSLVSLWLAGCSDTSNPPAPVSSVNGNAPANTNSGMLITPPPKMGTTSTAQQPQIQPVQQPQIQATQQPQIQPVQPVAQQPVQMENGRIVYNRQYGNIPKGSYSGSTYTVKKGDTLFYIAWITGNDFRDLAQRNNIQAPYALNVGQTLQVGNASGTPITGGNAITQADAAEQGVVIKPAQNSTVAVASQPTITYSESSGEQSANKMLPNNKPTATTVTAPVTVPTASTTEPTVSSTSTSTPISTWRWPTEGKVIETFGASEGGNKGIDIAGSKGQAIIATADGRVVYAGNALRGYGNLIIIKHNDDYLSAYAHNDTMLVREQQEVKAGQKIATMGSTGTSSTRLHFEIRYKGKSVNPLRYLPQR [P0ADA3] ?
6.2

Can you share its total protein half-life in vivo? I mean this sequence: MTDNNTALKKAGLKVTLPRLKILEVLQEPDNHHVSAEDLYKRLIDMGEEIGLATVYRVLNQFDDAGIVTRHNFEGGKSVFELTQQHHHDHLICLDCGKVIEFSDDSIEARQREIAAKHGIRLTNHSLYLYGHCAEGDCREDEHAHEGK [P0A9A9]
5.31

Look up total protein half-life in vivo: MNPIVINRLQRKLGYTFNHQELLQQALTHRSASSKHNERLEFLGDSILSYVIANALYHRFPRVDEGDMSRMRATLVRGNTLAELAREFELGECLRLGPGELKSGGFRRESILADTVEALIGGVFLDSDIQTVEKLILNWYQTRLDEISPGDKQKDPKTRLQEYLQGRHLPLPTYLVVQVRGEAHDQEFTIHCQVSGLSEPVVGTGSSRRKAEQAAAEQALKKLELE [P0A7Y0]
4.64

Suppose we examine the sequence MQKRAIYPGTFDPITNGHIDIVTRATQMFDHVILAIAASPSKKPMFTLEERVALAQQATAHLGNVEVVGFSDLMANFARNQHATVLIRGLRAVADFEYEMQLAHMNRHLMPELESVFLMPSKEWSFISSSLVKEVARHQGDVTHFLPENVHQALMAKLA [P0A6I6] ; what total protein half-life in vivo value has been reported?
5.11

# query: total protein half-life in vivo of entry MKLTLKNLSMAIMMSTIVMGSSAMAADSNEKIVIAHRGASGYLPEHTLPAKAMAYAQGADYLEQDLVMTKDDNLVVLHDHYLDRVTDVADRFPDRARKDGRYYAIDFTLDEIKSLKFTEGFDIENGKKVQTYPGRFPMGKSDFRVHTFEEEIEFVQGLNHSTGKNIGIYPEIKAPWFHHQEGKDIAAKTLEVLKKYGYTGKDDKVYLQCFDADELKRIKNELEPKMGMELNLVQLIAYTDWNETQQKQPDGSWVNYNYDWMFKPGAMKQVAEYADGIGPDYHMLIEETSQPGNIKLTGMVQDAQQNKLVVHPYTVRSDKLPEYTPDVNQLYDALYNKAGVNGLFTDFPDKAVKFLNKE
6.03

Name the reported total protein half-life in vivo value associated with the sequence MTNQPTEIAIVGGGMVGGALALGLAQHGFAVTVIEHAEPAPFVADSQPDVRISAISAASVSLLKGLGVWDAVQAMRCHPYRRLETWEWETAHVVFDAAELKLPLLGYMVENTVLQQALWQALEAHPKVTLRVPGSLIALHRHDDLQELELKGGEVIRAKLVIGADGANSQVRQMAGIGVHAWQYAQSCMLISVQCENDPGDSTWQQFTPDGPRAFLPLFDNWASLVWYDSPARIRQLQNMNMAQLQAEIAKHFPSRLGYVTPLAAGAFPLTRRHALQYVQPGLALVGDAAHTIHPLAGQGVNLGYRDVDALIDVLVNARSYGEAWASYPVLKRYQMRRMADNFIMQSGMDLFYAGFSNNLPPLRFMRNLGLMAAERAGVLKRQALKYALGL
3.97

Would you kindly share the measured total protein half-life in vivo for MKVAKDLVVSLAYQVRTEDGVLVDESPVSAPLDYLHGHGSLISGLETALEGHEVGDKFDVAVGANDAYGQYDENLVQRVPKDVFMGVDELQVGMRFLAETDQGPVPVEITAVEDDHVVVDGNHMLAGQNLKFNVEVVAIREATEEELAHGHVHGAHDHHHDHDHDGCCGGHGHDHGHEHGGEGCCGGKGNGGCGCH [P0A9K9] ?
4.07

Need total protein half-life in vivo of MNSFNEGVVSPLLSFWRRSLMLAGALLLTACSHNSSLPPFTASGFAEDQGAVRIWRKDSGDNVHLLAVFSPWRSGDTTTREYRWQGDNLTLININVYSKPPVNIRARFDDRGDLSFMQRESDGEKQQLSNDQIDLYRYRADQIRQISDALRQGRVVLRQGRWHAMEQTVTTCEGQTIKPDLDSQAIAHIERRQSRSSVDVSVAWLEAPEGSQLLLVANSDFCRWQPNEKTF , thanks.
7.12

Given MIIYLHGFDSNSPGNHEKVLQLQFIDPDVRLISYSTRHPKHDMQHLLKEVDKMLQLNVDERPLICGVGLGGYWAERIGFLCDIRQVIFNPNLFPYENMEGKIDRPEEYADIATKCVTNFREKNRDRCLVILSRNDEALNSQRTSEELHHYYEIVWDEEQTHKFKNISPHLQRIKAFKTLG [P0A8E1] , state its recorded total protein half-life in vivo.
4.58
